Entries and their remaining at 672 h values follow.
assay-info: Stability Test-1: residual rate of 1% aqueous solutions stored at 50° C. (HPLC)
Format: physicochemical
test-parameters: water; pH 5, 50° C., after 4 weeks, 1% aqueous solution
measurement-type: remaining at 672 h

• O=C1OC(C(O)CO)C2=C1OCCCCO2 (stereo not shown) [Synthesis Example 3, 2,3-O-(1,4-butanediyl) ascorbic acid] = ≥ 80%
• O=C1OC(C(O)CO)C2=C1OCC1(COC1)CO2 (stereo not shown) [Synthesis Example 6] = ≥ 80%
• O=C1OC(C(O)CO)C2=C1OCCCO2 (stereo not shown) [Synthesis Example 2, 2,3-O-(1,3-propanediyl) ascorbic acid] = ≥ 80%
• O=C1OC(C(O)CO)C2=C1OC(CO)CO2 (stereo not shown) [Synthesis Example 5] = ≥ 80%
